measured target: Protein deacetylase HDAC6 (Homo sapiens)
protocol notes: Inhibition of HDAC6 (unknown origin) at 1 uM incubated for 30 mins by fluorometric analysis
Consider the following compounds and their measured inhibition readings.
recorded metric: inhibition (%)

1) Cc1ccccc1CN1CCC2=C(C1)C(=O)N(Cc1ccc(C(=O)NO)cc1)C1=NCCN12	94.7
2) Cc1ccc(CN2CCC3=C(C2)C(=O)N(Cc2ccc(C(=O)NO)cc2)C2=NCCN23)cc1	91.3
3) O=C(CCCCCCNC(=O)c1cnc(N(c2ccccc2)c2ccccc2)nc1)NO	98.5

----------
Consider the following compounds and their measured IC50 readings.
System: NIH3T3
protocol notes: Antiproliferative activity against mouse NIH/3T3 cells assessed as inhibition of cell growth incubated for 24 to 48 hrs by CCK8 assay
Format: functional, cell-based
recorded metric: IC50

1) Cc1cccc(CN2CCC3=C(C2)C(=O)N(Cc2ccc(C(=O)NO)cc2)C2=NCCN23)c1	90 nM
2) Cc1ccccc1CN1CCC2=C(C1)C(=O)N(Cc1ccc(C(=O)NO)cc1)C1=NCCN12	5900 nM
3) O=C(NO)c1ccc(CN2C(=O)C3=C(CCN(Cc4cccc(Br)c4)C3)N3CCN=C23)cc1	100 nM
